target-of-assay: HPK1 (Homo sapiens, UniProt Q92918)
Construct: A HiBiT tag was introduced by CRISPR on the N terminus of HPK1 in Jurkat cells; host or cells: Jurkat cells (ATCC TIB-152), monoclonal line with CRISPR knock-in of HiBiT at the endogenous HPK1 locus
Sequence (Q92918 whole entry): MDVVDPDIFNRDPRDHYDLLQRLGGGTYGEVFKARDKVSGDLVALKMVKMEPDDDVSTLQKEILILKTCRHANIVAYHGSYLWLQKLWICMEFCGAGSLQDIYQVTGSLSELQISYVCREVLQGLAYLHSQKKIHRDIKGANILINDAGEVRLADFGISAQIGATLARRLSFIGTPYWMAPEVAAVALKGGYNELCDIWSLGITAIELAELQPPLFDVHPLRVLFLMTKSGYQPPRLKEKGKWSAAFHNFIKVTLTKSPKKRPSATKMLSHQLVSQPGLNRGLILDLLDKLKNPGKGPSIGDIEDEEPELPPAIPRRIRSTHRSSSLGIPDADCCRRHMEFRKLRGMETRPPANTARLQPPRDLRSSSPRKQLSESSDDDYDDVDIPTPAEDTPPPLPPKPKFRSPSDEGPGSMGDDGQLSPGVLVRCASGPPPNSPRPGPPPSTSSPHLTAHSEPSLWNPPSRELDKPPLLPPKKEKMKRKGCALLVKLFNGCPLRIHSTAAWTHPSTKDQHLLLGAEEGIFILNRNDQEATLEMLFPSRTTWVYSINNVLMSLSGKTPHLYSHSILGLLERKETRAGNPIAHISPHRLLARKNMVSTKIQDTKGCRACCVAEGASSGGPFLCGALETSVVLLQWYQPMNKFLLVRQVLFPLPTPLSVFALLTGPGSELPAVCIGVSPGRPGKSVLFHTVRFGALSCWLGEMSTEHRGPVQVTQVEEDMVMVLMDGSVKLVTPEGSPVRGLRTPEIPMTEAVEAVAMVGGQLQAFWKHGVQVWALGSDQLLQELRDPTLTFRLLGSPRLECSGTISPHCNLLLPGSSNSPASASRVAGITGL
assay-procedure: HPK1 Cellular HiBit Degradation Assay
Assay type: cell-based
test-conditions: Jurkat, HiBiT HPK1 Jurkat cells, 24 hrs; maximum degradation vs DMSO vehicle control; read-out: Dmax Category
recorded-metric: Dmax

compound	target-of-assay	Dmax
CC(C)n1cnc2cc(-c3ccc4c(c3)N([C@H]3C[C@@H](N5CCCCC5)C3)C(=O)C43CCN(C(=O)CC4CCN(C(=O)C5CCN(c6ccc(C7CCC(=O)NC7=O)cn6)CC5)CC4)CC3)nc(NC3CC3)c21 (mixture of isomers)	HPK1 (Homo sapiens, UniProt Q92918)	70 to 85%

Measured Dmax, CC(C)n1cnc2cc(-c3ccc4c(c3)N([C@H]3C[C@@H](N5CCCCC5)C3)C(=O)C43CCN(C(=O)[C@@H]4CCN(C(=O)C5CCN(c6ncc(C7CCC(=O)NC7=O)cn6)CC5)C4)CC3)nc(Nc3ccccc3F)c21 (some centres unmarked) : 70 to 85%

---

target-of-assay: HPK1 (Homo sapiens, UniProt Q92918)
Construct: A HiBiT tag was introduced by CRISPR on the N terminus of HPK1 in Jurkat cells; host or cells: Jurkat cells (ATCC TIB-152), monoclonal line with CRISPR knock-in of HiBiT at the endogenous HPK1 locus
assay-procedure: HPK1 Cellular HiBit Degradation Assay
Assay type: cell-based
test-conditions: HiBiT HPK1 Jurkat cells, 24 hrs; concentration at which 50% of HPK1 was remaining; read-out: DC50 Category
recorded-metric: DC50

As a guide, the following entries are already answered.
compound	DC50
CC(C)n1cnc2cc(-c3ccc4c(c3)N([C@H]3C[C@@H](N5CCCCC5)C3)C(=O)C43CCN(C(=O)[C@@H]4CCN(C(=O)[C@H]5CC[C@H](Nc6cccc7c6C(=O)N(C6CCC(=O)NC6=O)C7=O)CC5)C4)CC3)nc(NC3CC3)c21 (mixture of isomers)	< 0.1 µM
CC(C)n1cnc2cc(-c3ccc4c(c3)N([C@H]3C[C@@H](N5C6CCC5COC6)C3)C(=O)C43CCN(C(=O)C4(C)CCN(C(=O)C5CCN(c6ccc(C7CCC(=O)NC7=O)cn6)CC5)CC4)CC3)nc(NC3CC3)c21 (mixture of isomers)	< 0.1 µM
CC(C)n1cnc2cc(-c3ccc4c(c3)N([C@H]3C[C@@H](N5CCCCC5)C3)C(=O)C43CCN(C(=O)[C@]45C[C@H]4CN(C(=O)C4CCN(c6ccc(C7CCC(=O)NC7=O)cc6)CC4)C5)CC3)nc(NC3CC3)c21 (mixture of isomers)	< 0.1 µM

// DC50 lookup, compound = Cc1cc(C(=O)N2CCC3(CC2)C(=O)N([C@H]2C[C@@H](N4CCCCC4)C2)c2cc(-c4cc5ncn(C(C)C)c5c(Nc5ccccc5F)n4)ccc23)ccc1C(=O)N1CCN(c2ccc3c(c2)C(=O)N(C2CCC(=O)NC2=O)C3=O)CC1 (mixture of isomers) , result: 0.5 to 1 µM

---

target-of-assay: HPK1 (Homo sapiens)
Construct: A HiBiT tag was introduced by CRISPR on the N terminus of HPK1 in Jurkat cells; host or cells: Jurkat cells (ATCC TIB-152), monoclonal line with CRISPR knock-in of HiBiT at the endogenous HPK1 locus
assay-procedure: HPK1 Cellular HiBit Degradation Assay
Format: cell-based
test-conditions: Jurkat, HiBiT HPK1 Jurkat cells, 24 hrs; maximum degradation vs DMSO vehicle control; read-out: Dmax Category
Description: HPK1 Cellular HiBit Degradation Assay A HiBiT tag was introduced by CRISPR on the N terminus of HPK1 in Jurkat cells (ATCC® TIB-152) to allow quantitation of HPK1 protein levels in a monoclonal human cell line. […] Cells were incubated for 10 min at room temperature and luminescence was read on an EnVision plate reader (Perkin Elmer, 0.1 sec per well). […] Percent HPK1 remaining per sample was calculated as follows: […]
recorded-metric: Dmax

compound	Dmax
CC(C)n1cnc2cc(-c3ccc4c(c3)N([C@H]3C[C@@H](N5CCCCC5)C3)C(=O)C43CCN(C(=O)[C@]4(C)CCN(C(=O)C5CCN(c6ccc([C@@H]7CCC(=O)NC7=O)cc6)CC5)C4)CC3)nc(NC3CC3)c21 (racemic)	70 to 85%
CC(C(=O)N1CCC2(CC1)C(=O)N([C@H]1C[C@@H](N3CCCCC3)C1)c1cc(-c3cc4ncn(C(C)C)c4c(NC4CC4)n3)ccc12)C1CCN(C(=O)C2CCN(c3ccc(C4CCC(=O)NC4=O)cn3)CC2)CC1 (mixture of isomers)	70 to 85%
CC(C)n1cnc2cc(-c3ccc4c(c3)N([C@H]3C[C@@H](N5CCCCC5)C3)C(=O)C43CCN(C(=O)C4CCN(C(=O)C5CCN(c6ccc(C7CCC(=O)NC7=O)nc6)CC5)CC4)CC3)nc(NC3CC3)c21 (stereo partly shown)	50 to 70%
CC(C)n1cnc2cc(-c3ccc4c(c3)N([C@H]3C[C@@H](N5CCCCC5)C3)C(=O)C43CCN(C(=O)C4CCN(C(=O)C5CCN(c6ccc(C7CCC(=O)NC7=O)nc6)CC5)CC4)CC3)nc(Nc3ccncc3F)c21 (mixture of isomers)	70 to 85%
CC(C)n1cnc2cc(-c3ccc4c(c3)N([C@H]3C[C@@H](N5CCCCC5)C3)C(=O)C43CCN(C(=O)C4(C)CCN(C(=O)[C@H]5CC[C@H](Oc6ccc(C7CCC(=O)NC7=O)cc6)CC5)CC4)CC3)nc(Nc3ccccc3F)c21 (mixture of isomers)	> 85%
CC(C)n1cnc2cc(-c3ccc4c(c3)N([C@H]3C[C@@H](N5CCCCC5)C3)C(=O)C43CCN(C(=O)C4CCN(C(=O)C5CCN(c6ccc(C7CCC(=O)NC7=O)cc6)CC5)CC4)CC3)nc(Nc3ccncc3F)c21 (stereo partly shown)	70 to 85%
CC(C)n1cnc2cc(-c3ccc4c(c3)N([C@H]3C[C@@H](N5CCCCC5)C3)C(=O)C43CCN(C(=O)C4CCN(C(=O)C5CCN(c6ncc(C7CCC(=O)NC7=O)cn6)CC5)CC4)CC3)nc(Nc3ccccc3F)c21 (stereo partly shown)	70 to 85%
CC(C)n1cnc2cc(-c3ccc4c(c3)N([C@H]3C[C@@H](N5CCCCC5)C3)C(=O)C43CCN(C(=O)C4CCN(CCC5CCN(c6ccc(C7CCC(=O)NC7=O)cn6)CC5)CC4)CC3)nc(Nc3ccccc3F)c21 (mixture of isomers)	> 85%

// each listed compound needs a value for Dmax
1. CC(C)n1cnc2cc(-c3ccc4c(c3)N([C@H]3C[C@@H](N5C6COCC5C6)C3)C(=O)C43CCN(C(=O)C4(C)CCN(C(=O)C5CCN(c6ccc(C7CCC(=O)NC7=O)cn6)CC5)CC4)CC3)nc(NC3CC3)c21 (mixture of isomers)
2. COC1CN(C(=O)C2CCN(c3ccc(C4CCC(=O)NC4=O)cc3)CC2)CCC1C(=O)N1CCC2(CC1)C(=O)N([C@H]1C[C@@H](N3CCCCC3)C1)c1cc(-c3cc4ncn(C(C)C)c4c(NC4CC4)n3)ccc12 (mixture of isomers)
3. CC(C)n1cnc2cc(-c3ccc4c(c3)N([C@H]3C[C@@H](N5CCCCC5)C3)C(=O)C43CCN(C(=O)C4CCN(C(=O)[C@H]5CC[C@H](Nc6cncc(C7CCC(=O)NC7=O)c6)CC5)CC4)CC3)nc(Nc3ccccc3F)c21 (mixture of isomers)
4. CC(C)n1cnc2cc(-c3ccc4c(c3)N([C@H]3C[C@@H](N5CC6CCC(C5)O6)C3)C(=O)C43CCN(C(=O)C4(C)CCN(C(=O)C5CCN(c6ccc(C7CCC(=O)NC7=O)cn6)CC5)CC4)CC3)nc(NC3CC3)c21 (mixture of isomers)
5. CC(C)n1cnc2cc(-c3ccc4c(c3)N([C@H]3C[C@@H](N5CCCCC5)C3)C(=O)C43CCN(C(=O)C4(C(F)F)CCN(C(=O)C5CCN(c6ccc(C7CCC(=O)NC7=O)cn6)CC5)CC4)CC3)nc(NC3CC3)c21 (mixture of isomers)
6. CC(C)n1cnc2cc(-c3ccc4c(c3)N([C@H]3C[C@@H](N5CCCCC5)C3)C(=O)C43CCN(C(=O)C4CCN(C(=O)[C@H]5CC[C@H](C(=O)N6CCc7ccc(C8CCC(=O)NC8=O)cc7C6)CC5)CC4)CC3)nc(Nc3ccccc3F)c21 (mixture of isomers)
7. CC(C)n1cnc2cc(-c3ccc4c(c3)N([C@H]3C[C@@H](N5CCCCC5)C3)C(=O)C43CCN(C(=O)C[C@@H]4CCCN(C(=O)CC5CCN(c6ccc(C7CCC(=O)NC7=O)cn6)CC5)C4)CC3)nc(NC3CC3)c21 (mixture of isomers)

Response:
1: 50 to 70%; 2: 50 to 70%; 3: 50 to 70%; 4: 70 to 85%; 5: > 85%; 6: 70 to 85%; 7: 70 to 85%

The compound identified as CC(C)n1cnc2cc(-c3ccc4c(c3)N([C@H]3C[C@@H](N5CCCCC5)C3)C(=O)C43CCN(C(=O)C4CCN(C(=O)C5CCN(c6ncc(C7CCC(=O)NC7=O)cn6)CC5)CC4)CC3)nc(NC3CC3)c21 (mixture of isomers) registered its Dmax at 50 to 70%
